Data credit: the RNAGym collection of RNA variant scans (doi:10.1038/s41586-018-0170-7)

B1: tRNA (parent)
chain: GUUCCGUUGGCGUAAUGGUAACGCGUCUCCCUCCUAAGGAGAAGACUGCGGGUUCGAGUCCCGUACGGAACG

# Variants of: B1
# Assay Summary: yeast fitness, log relative to wild type (ln ratio); higher = fitter; tRNA-Arg(CCU), competitive growth, 37 C, 1 M NaCl
Each entry below lists one item and its recorded yeast fitness (ln) value.
Answer with the value's number alone.

Field request: yeast fitness (ln) | item: U2C C27U A43C C46U A69G A70U C71U -0.307

Here is the next variant: U2G G6U C27U C66A A70U C71U -0.275
